- Test system: Vero E6 infected with SARS-CoV-2
- Test description: inhibition of SARS-CoV-2 cytopathic effect; higher = more antiviral protection, active = above 15
- Experimental setup: 833.33 nM; 48 h
Readout kind: inhibition of SARS-CoV-2 cytopathic effect (%)
Entry rule: numbers only, all in %.

>>> print(df.to_string())
                                   molecule  unit_name    val
0  COc1ccccc1N1CCN(CCCCNC(=O)c2ccc(-c3ccc(C(C)=O)cc3)cc2)CC1          %  -6.69

// inhibition of SARS-CoV-2 cytopathic effect lookup, key: O=C(c1ccc(-c2ccc(Cl)cc2)o1)N(Cc1ccccn1)c1ccc(N2CCNCC2)cc1
-1.66

// inhibition of SARS-CoV-2 cytopathic effect lookup, key: NCC(=O)N1C[C@H](NC(=O)c2ccccc2)C[C@H]1C(=O)O [danegaptide]
-0.88

###

Listed compounds paired with reported inhibition of SARS-CoV-2 cytopathic effect
- Test system: Vero E6 infected with SARS-CoV-2
- Test description: inhibition of SARS-CoV-2 cytopathic effect; higher = more antiviral protection, active = above 15
- Experimental setup: 1 nM; 48 h
Entry rule: numbers only, all in %.

Below: 5 compounds and their reported inhibition of SARS-CoV-2 cytopathic effect.
Compound	Val
CC(NC(=O)c1ccccc1/N=C/c1c(O)ccc2ccccc12)c1ccccc1 (stereo not drawn)	3.41
Nc1cc(C(Cl)=C(Cl)Cl)c(S(N)(=O)=O)cc1S(N)(=O)=O	-0.52
O=C(Nc1ccncc1)C(=O)c1cn(Cc2ccc(Cl)cc2)c2ccccc12	1.08
CC(C)(C)c1ccc(C(=O)CCCN2CCC(OC(c3ccccc3)c3ccccc3)CC2)cc1	0.86
CC(=O)Nc1cc([As](=O)(O)O)ccc1O	0.15

// inhibition of SARS-CoV-2 cytopathic effect lookup, key: CCC(=O)OCC(=O)[C@@]1(OC(=O)CC)[C@H](C)C[C@H]2[C@H]3[C@H]([C@@H](O)C[C@@]21C)[C@@]1(C)C=CC(=O)C=C1C[C@H]3Cl [alclometasone-dipropionate]
3

// inhibition of SARS-CoV-2 cytopathic effect lookup, key: Cc1ccsc1/C=C/C1=NCCCN1C
-0.99

// inhibition of SARS-CoV-2 cytopathic effect lookup, key: O=S1(=O)CCN(CN2CCS(=O)(=O)NC2)CN1
0.08

###

Listed molecules paired with reported inhibition of SARS-CoV-2 cytopathic effect
- Test system: Vero E6 infected with SARS-CoV-2
- Test description: inhibition of SARS-CoV-2 cytopathic effect; higher = more antiviral protection, active = above 15
- Experimental setup: 100 nM; 48 h
Entry rule: numbers only, all in %.

Below: 5 molecules and their reported inhibition of SARS-CoV-2 cytopathic effect.
Molecule	Target or test system	Unit name	Val
CN1c2cc3c(cc2N=C(c2ccc(C(=O)O)cc2)c2ccccc21)C(C)(C)CCC3(C)C	Vero E6 infected with SARS-CoV-2	%	-1.76
Cn1nc(-c2cccc(F)c2)n(C)c1=S	Vero E6 infected with SARS-CoV-2	%	1.49
CCOc1cc2ncc(C#N)c(Nc3ccc(F)c(Cl)c3)c2cc1NC(=O)/C=C/CN(C)C	Vero E6 infected with SARS-CoV-2	%	-7.91
COc1cc(Nc2ncc(F)c(Nc3ccc4c(n3)NC(=O)C(C)(C)O4)n2)cc(OC)c1OC	Vero E6 infected with SARS-CoV-2	%	-2.04
NC[C@@H]1CC[C@@H](N)[C@@H](O[C@H]2[C@H](O)[C@@H](O[C@H]3O[C@H](CO)[C@@H](O)[C@H](N)[C@H]3O)[C@H](N)C[C@@H]2N)O1	Vero E6 infected with SARS-CoV-2	%	1.67

// inhibition of SARS-CoV-2 cytopathic effect lookup, key: COC(=O)Nc1nc2cc(C(=O)c3ccc(F)cc3)ccc2[nH]1
0.32

// inhibition of SARS-CoV-2 cytopathic effect lookup, key: O=C(O)c1cc(-c2ccccc2)nc2ccccc12
-2.56

// inhibition of SARS-CoV-2 cytopathic effect lookup, key: COc1ccc(S(=O)(=O)N2CCCN(S(=O)(=O)c3ccc(OC)c(OC)c3)CC2)cc1OC
-0.96

// inhibition of SARS-CoV-2 cytopathic effect lookup, key: CCc1nn(CCCN2CCN(c3cccc(Cl)c3)CC2)c(=O)n1CCOc1ccccc1
-12.7

// inhibition of SARS-CoV-2 cytopathic effect lookup, key: CNC(=O)c1cc(Oc2ccc(NC(=O)Nc3cc(C(C)(C)C)nn3-c3ccc4ncccc4c3)c(F)c2)ccn1
1.77

// inhibition of SARS-CoV-2 cytopathic effect lookup, key: O=C(Nc1ccccc1)OCC(CN1CCCCC1)OC(=O)Nc1ccccc1 (centres undefined)
0.05

// inhibition of SARS-CoV-2 cytopathic effect lookup, key: O=C(O)CCC(=O)C(=O)O
1.87

// inhibition of SARS-CoV-2 cytopathic effect lookup, key: CN(C)CC(c1ccc(O)cc1)C1(O)CCCCC1 (centres undefined)
4.53

// inhibition of SARS-CoV-2 cytopathic effect lookup, key: Oc1ccc(O)cc1 [hydroquinone]
1.25

// inhibition of SARS-CoV-2 cytopathic effect lookup, key: Nc1nc(OCc2ccccc2)c2nc[nH]c2n1
-5.93

// inhibition of SARS-CoV-2 cytopathic effect lookup, key: Clc1ccccc1C(c1ccccc1)(c1ccccc1)n1ccnc1
-0.28

// inhibition of SARS-CoV-2 cytopathic effect lookup, key: COc1cc([C@@H]2c3cc4c(cc3[C@@H](O[C@@H]3O[C@@H]5CO[C@@H](C)O[C@H]5[C@H](O)[C@H]3O)[C@H]3COC(=O)[C@H]23)OCO4)cc(OC)c1OP(=O)(O)O [etoposide-phosphate]
-0.75

// inhibition of SARS-CoV-2 cytopathic effect lookup, key: Cc1ccc(S(=O)(=O)/C=C/C#N)cc1
0.01

// inhibition of SARS-CoV-2 cytopathic effect lookup, key: O=[N+]([O-])c1cnc(Sc2nnc(O)n2-c2ccc3c(c2)OCCO3)s1
1.8

###

- Test system: Vero E6 infected with SARS-CoV-2
- Test description: inhibition of SARS-CoV-2 cytopathic effect; higher = more antiviral protection, active = above 15
- Experimental setup: 8.33 nM; 48 h
Readout kind: inhibition of SARS-CoV-2 cytopathic effect

Below: 3 molecules and their reported inhibition of SARS-CoV-2 cytopathic effect.
>>> print(df.to_string())
                                   molecule                val
0  COc1cccc(CCc2ccccc2OCC(CN(C)C)OC(=O)CCC(=O)O)c1 (centres undefined) [sarpogrelate]  -1.71% (inactive)
1  O=C(OCC(O)CO)c1ccccc1Nc1ccnc2cc(Cl)ccc12 (centres undefined)   0.88% (inactive)
2  COc1c(-c2ccc3cc(NS(C)(=O)=O)ccc3c2)cc(-n2ccc(=O)[nH]c2=O)cc1C(C)(C)C  -0.41% (inactive)

// inhibition of SARS-CoV-2 cytopathic effect lookup, key: O=C1C2CC=CCC2C(=O)N1SC(Cl)(Cl)Cl (centres undefined)
4.35% (inactive)

// inhibition of SARS-CoV-2 cytopathic effect lookup, key: CC(C)(C)Sc1c(CC(C)(C)C(=O)O)n(Cc2ccc(Cl)cc2)c2ccc(OCc3ccc4ccccc4n3)cc12
0.25% (inactive)

###

Listed compounds paired with reported inhibition of SARS-CoV-2 cytopathic effect
- System: Vero E6 infected with SARS-CoV-2
- Test description: inhibition of SARS-CoV-2 cytopathic effect; higher = more antiviral protection, active = above 15
- Experimental setup: 100 nM; 48 h
Entry rule: numbers only, all in %.

Below: 3 compounds and their reported inhibition of SARS-CoV-2 cytopathic effect.
Compound	Val
C/C(=C\c1ccc(C(=O)O)cc1)c1ccc2c(c1)C(C)(C)CCC2(C)C	-2.43
O=C(O)CCc1ccc(NCc2cccc3c2CCCN3CCOc2ccccc2)cc1F	-0.81
CC(C)(C)c1ccc(-c2nc3ccccc3[nH]2)cc1	1.49

// inhibition of SARS-CoV-2 cytopathic effect lookup, key: C=CC(N)CCC(=O)O (stereo unspecified) [vigabatrin]
-9.5

// inhibition of SARS-CoV-2 cytopathic effect lookup, key: C[C@@H]1COC(Nc2ccc3ncnc(Nc4ccc(OCc5nccs5)c(Cl)c4)c3c2)=N1
-0.65

// inhibition of SARS-CoV-2 cytopathic effect lookup, key: CC1(N)CCN(c2cnc(-c3cccc(Cl)c3Cl)c(N)n2)CC1
2.58

###

- System: Vero E6 infected with SARS-CoV-2
- Test description: inhibition of SARS-CoV-2 cytopathic effect; higher = more antiviral protection, active = above 15
- Experimental setup: 100 nM; 48 h
Readout kind: inhibition of SARS-CoV-2 cytopathic effect (%)
Entry rule: numbers only, all in %.

>>> df
                                   compound    val
0  O=C(O)c1ccc(Nc2ncc3c(n2)-c2ccc(Cl)cc2C(c2c(F)cccc2F)=NC3)cc1   0.11
1  CC(C)[C@H](CO)Nc1nc(Nc2cccc(Cl)c2)c2ncn(C(C)C)c2n1  -0.26
2  O=C1S/C(=C\c2ccc(OCc3cccc(B(O)O)c3)cc2)C(=O)N1Cc1ccc(F)cc1   0.45

Shift focus to the following entry.
// inhibition of SARS-CoV-2 cytopathic effect lookup, key: O=c1[nH]cnc2c([C@@H]3N[C@H](CO)[C@@H](O)[C@H]3O)c[nH]c12
-1.79
